Measured GI50 by item
Tested on: 786-0
RUN DESCRIPTION: NCI tumour cell line growth inhibition, 48 h
Active and inactive are the calls of the source. Rule as the data show it: active = GI50 up to about 1.1 µM and inactive = higher.

COMPOUND	GI50
CCc1cccc(CC)c1Nc1nc(-c2ccccc2-c2ccccc2)cs1	> 100 µM (inactive)
CC1CC(=O)C(C(O)CC2CC(=O)N(c3ccccc3)C(=O)C2)C(C)C1 (stereo not given)	> 100 µM (inactive)
CC(C)CCCC(C)[C@H]1CCC2[C@@H]3CCC4Cc5nc6c(nc5C[C@]4(C)C3CC[C@@]21C)CC1CC[C@@H]2C(CC[C@@]3(C)C2CC[C@@H]3O)[C@@]1(C)C6 (stereo not given in full)	87.1 µM (inactive)
CCOC(OC1=C(C#N)CCC1)C(C)[Se]c1ccccc1 (stereo not given)	14.4 µM (inactive)
COc1ccc2c(c1)C(O)(C(F)(F)F)c1cc(C(=O)C(F)(F)F)c3ccccc3c1N2 (stereo not given)	13.5 µM (inactive)
